- Target or test system: Phenylalanine-4-hydroxylase (Rattus norvegicus, UniProt P04176)
- Sequence (P04176 whole entry): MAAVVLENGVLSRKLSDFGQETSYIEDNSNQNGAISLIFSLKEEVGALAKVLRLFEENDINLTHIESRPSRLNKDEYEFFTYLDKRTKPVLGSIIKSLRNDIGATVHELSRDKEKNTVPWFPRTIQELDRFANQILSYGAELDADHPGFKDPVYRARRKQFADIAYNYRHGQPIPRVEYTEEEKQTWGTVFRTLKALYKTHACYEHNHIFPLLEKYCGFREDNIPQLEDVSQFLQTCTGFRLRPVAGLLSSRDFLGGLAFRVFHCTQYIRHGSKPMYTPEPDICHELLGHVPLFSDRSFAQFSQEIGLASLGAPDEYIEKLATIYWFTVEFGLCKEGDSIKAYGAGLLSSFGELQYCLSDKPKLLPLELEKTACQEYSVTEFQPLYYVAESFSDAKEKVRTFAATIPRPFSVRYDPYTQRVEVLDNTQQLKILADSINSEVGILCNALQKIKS
# reported Ki; entries follow
Write it as a number; the unit µM goes unstated.

Guide cases for Ki, answers given:
Molecule: CC1CNc2nc(N)[nH]c(=O)c2S1 (centres undefined)
Target or test system: Phenylalanine-4-hydroxylase (Rattus norvegicus, UniProt P04176)
Readout unit: µM
Ki: 36
--
Molecule: Nc1nc(O)c2c(n1)NCC(c1ccccc1)[S+]2[O-] (centres undefined)
Target or test system: Phenylalanine-4-hydroxylase (Rattus norvegicus, UniProt P04176)
Readout unit: µM
Ki: 7
--
Molecule: Nc1nc(N)c(Sc2ccccc2)c(O)n1
Target or test system: Phenylalanine-4-hydroxylase (Rattus norvegicus, UniProt P04176)
Readout unit: µM
Ki: 4.7

The record that follows has no Ki shown yet.
The reported value for "Nc1nc(O)c2c(n1)NCCS2" in terms of Ki is 85

Source listed as ChEMBL document CHEMBL1122364.
